experiment: Cmax in human at 15 mg/kg, po; format: ADME, organism-based; parameters: dose 15 mg/kg, route oral; conditions: in vivo
assay.endpoint: Cmax

Incoming: Note down Cmax recorded for CC(C)NCC1CCc2cc(CO)c([N+](=O)[O-])cc2N1 (stereo unspecified)
Outgoing: 1000 to 4000 ng/mL

---

assay: Protein binding in plasma (unknown origin); format: ADME, cell-free
assay.endpoint: PPB

Incoming: Note down PPB recorded for O=C(C1CCCCC1)N1CC(=O)N2CCc3ccccc3C2C1 (stereo unspecified)
Outgoing: 0.19 to 3 mg/mL

---

experiment: Drug excretion in human urine up to 4 days; type: ADME; settings: read-out: Drug excretion
assay.endpoint: dose excreted at 96 h (%)
Give the number; % is assumed, so skip it.

Incoming: Note down dose excreted at 96 h recorded for O=C(C1CCCCC1)N1CC(=O)N2CCc3ccccc3C2C1 (stereo unspecified) [PRAZIQUANTEL]
Outgoing: 80
